system: Human immunodeficiency virus 1; test: Antiviral activity against HIV-1 harboring Y188L mutant infected in human MT4 cells assessed as inhibition of virus-induced cytopathic effect by MTT assay; settings: Human immunodeficiency virus 1, MT4
Each entry below carries its reported EC50.

>  <compound>
Cc1cc(-c2ccc(C#N)cc2)ccc1/C(=N\N)c1ccnc(Nc2ccc(C#N)cc2)n1

>  <result qualifier>
=

>  <EC50 [µM]>
0.442

$$$$
>  <compound>
N#Cc1ccc(Nc2nccc(/C(=N/N)c3ccc(-c4ccc(C#N)cc4)cc3OC(F)(F)F)n2)cc1

>  <result qualifier>
=

>  <EC50 [µM]>
1.48

$$$$
>  <compound>
CNC(c1ccnc(Nc2ccc(C#N)cc2)n1)c1ccc(-c2ccc(C#N)cc2)cc1OC (centres undefined)

>  <result qualifier>
=

>  <EC50 [µM]>
7.32

$$$$
>  <compound>
CNC(c1ccnc(Nc2ccc(C#N)cc2)n1)c1ccc(-c2ccc(C#N)cc2)cc1F (centres undefined)

>  <result qualifier>
>

>  <EC50 [µM]>
12.7

$$$$
>  <compound>
C/N=C(/c1ccnc(Nc2ccc(C#N)cc2)n1)c1ccc(-c2ccc(C#N)cc2)cc1Cl

>  <result qualifier>
=

>  <EC50 [µM]>
3.81

$$$$
>  <compound>
N#Cc1ccc(Nc2nccc(/C(=N/N)c3c(F)cc(-c4ccc(C#N)cc4)cc3F)n2)cc1

>  <result qualifier>
>

>  <EC50 [µM]>
23.1

$$$$
>  <compound>
C/N=C(/c1ccnc(Nc2ccc(C#N)cc2)n1)c1ccc(-c2ccc(C#N)cc2)cc1C(F)(F)F

>  <result qualifier>
=

>  <EC50 [µM]>
3.03

$$$$
>  <compound>
COc1cc(-c2ccc(C#N)cc2)ccc1/C(=N\N)c1ccnc(Nc2ccc(C#N)cc2)n1

>  <result qualifier>
=

>  <EC50 [µM]>
0.148

$$$$
>  <compound>
Cc1ccnc2c1NC(=O)c1cccnc1N2C1CC1

>  <result qualifier>
>

>  <EC50 [µM]>
15

$$$$

====

molecular target: Human immunodeficiency virus type 1 reverse transcriptase (Human immunodeficiency virus 1)
pIC50: −log10 of the molar value.
Each entry below carries its reported pIC50.
parameter measured: pIC50

>  <molecule>
N#Cc1ccc(Nc2nccc(/C(=N/N)c3ccc(-c4ccc(C#N)cc4)cc3F)n2)cc1

>  <result value>
7.70

$$$$
>  <molecule>
C/N=C(/c1ccnc(Nc2ccc(C#N)cc2)n1)c1ccc(-c2ccc(C#N)cc2)cc1OC(F)(F)F

>  <result value>
6.66

$$$$
>  <molecule>
N#Cc1ccc(Nc2nccc(/C(=N/N)c3ccc(-c4ccc(C#N)cc4)cc3OC(F)(F)F)n2)cc1

>  <result value>
7.14

$$$$
>  <molecule>
N#Cc1ccc(Nc2nccc(/C(=N/N)c3ccc(-c4ccc(C#N)cc4)cc3Cl)n2)cc1

>  <result value>
7.44

$$$$
>  <molecule>
N#Cc1ccc(Nc2nccc(/C(=N/N)c3c(F)cc(-c4ccc(C#N)cc4)cc3F)n2)cc1

>  <result value>
7.51

$$$$
>  <molecule>
CNC(c1ccnc(Nc2ccc(C#N)cc2)n1)c1ccc(-c2ccc(C#N)cc2)cc1F (centres undefined)

>  <result value>
6.11

$$$$
>  <molecule>
CNC(c1ccnc(Nc2ccc(C#N)cc2)n1)c1ccc(-c2ccc(C#N)cc2)cc1OC (centres undefined)

>  <result value>
6.02

$$$$
>  <molecule>
CNC(c1ccnc(Nc2ccc(C#N)cc2)n1)c1ccc(-c2ccc(C#N)cc2)cc1OC(F)(F)F (centres undefined)

>  <result value>
5.70

$$$$
>  <molecule>
Cc1cc(-c2ccc(C#N)cc2)ccc1/C(=N\N)c1ccnc(Nc2ccc(C#N)cc2)n1

>  <result value>
7.64

$$$$
